System: bladder
Assay: animal or person
Details: Rattus norvegicus, po, 4 h, read-out: Contraction interval
Measured response vs control in vivo at 1 mg/kg by item
Give a bare numeral; the unit % is implied.

Incoming: What response vs control in vivo at 1 mg/kg value was documented for this compound, COc1ccc(NC(=O)C(C)(O)C(F)(F)F)c2c1S(=O)(=O)Cc1ccsc1C2=O (stereo not drawn) [Compound 1-28] ?
Outgoing: 140

Incoming: # iterate: CC(O)(C(=O)Nc1cccc2c1C(=O)c1ccoc1CS2(=O)=O)C(F)(F)F (stereo not drawn) [Compound 1-7]
Outgoing: 155

Incoming: # iterate: CC(O)(C(=O)Nc1ccc(F)c2c1C(=O)c1sccc1CS2(=O)=O)C(F)(F)F (stereo not drawn) [Compound 1-35]
Outgoing: 152

More entries:
Incoming: What response vs control in vivo at 1 mg/kg value was documented for this compound, CC(O)(C(=O)Nc1cccc2c1C(=O)c1ccccc1CS2(=O)=O)C(F)(F)F (stereo not drawn) [Compound 1-3] ?
Outgoing: 160

Incoming: # iterate: CC1(C)Oc2ccc(C#N)cc2C(N2CCCC2=O)C1O (stereo not drawn) [Cromakalim, cromakalim, reference compound]
Outgoing: 133

Incoming: # iterate: CC(C)(O)C(=O)Nc1cccc2c1C(=O)c1sccc1CS2(=O)=O [Compound 3-12]
Outgoing: 161
